Target: T1, Rhesus IL-18 (rhesus (rhesus/cynomolgus))
T1 construct: also called Rhesus/Cynomolgus IL-18; rhesus/cynomolgus IL-18
Test: SPR, Biacore 3000, antibody captured on Protein A, 25 C
Method: Biacore™ kinetic analysis of the humanised 2C10 antibodies was carried out on a Biacore™ 3000 instrument using Protein A capture of the antibodies in HBS-EP buffer (Biacore™). Briefly, Protein A was immobilised on a CM5 chip by primary amine coupling, using manufacturers recommended protocol, to densities around 2000-4000 resonance units (RU's). […]
This section presents binders with their documented Kd values.
measurement kind: Kd (nM)

| binder | measurement kind | value |
| --- | --- | --- |
| H2L2 humanised anti-IL-18 antibody (antibody, human IgG1, kappa, V domains shown, Human IgG1 / kappa) VH: QVQLVQSGAEVKKPGASVKVSCKVSGEISTGYYFHWVRRRPGKGLEWMGRIDPEDDSTKYAERFKDRVTMTEDTSTDTAYMELSSLRSEDTAVYYCTTWRIYRDSSGRPFYVMDAWGQGTLVTVSS VL: DIQMTQSPSSVSASVGDRVTITCLASEDIYTYLTWYQQKPGKAPKLLIYGANKLQDGVPSRFSGSGSGTDYTLTISSLQPEDFATYYCLQGSKFPLTFGQGTKLEIKR | Kd | 0.104 |
| H3L2 humanised anti-IL-18 antibody (antibody, human IgG1, kappa, V domains shown, Human IgG1 / kappa) VH: QVQLVQSGAEVKKPGASVKVSCKVSGEISTGYYFHFVRRRPGKGLEWMGRIDPEDDSTKYAERFKDRVTMTADTSTDTAYMELSSLRSEDTATYFCTTWRIYRDSSGRPFYVMDAWGQGTLVTVSS VL: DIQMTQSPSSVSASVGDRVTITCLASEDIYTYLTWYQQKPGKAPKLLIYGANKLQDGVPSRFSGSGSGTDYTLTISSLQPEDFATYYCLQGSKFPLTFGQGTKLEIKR | Kd | 0.0596 |

The measurements presented in this section are drawn from patent US8133978.
